species on record: Mus musculus; assay: Inhibition of reserpine-induced hypothermia in mice by peroral dose; assay type: functional; conditions: po, read-out: MED
With a cut-off of 1 µg/kg, any minimal effective dose strictly below it is called 1; any minimal effective dose meeting it or above is called 0.

These recorded examples may help you get a feel for the data.
{"Molecule": "COc1ccc(C2CNC(=O)C2)cc1OC1CCCC1 (configuration not stated)", "Group Label": 1}
{"Molecule": "COC(=O)c1cccc(-n2c(=O)n(Cc3ccccc3)c(=O)c3cccnc32)c1", "Group Label": 0}
{"Molecule": "COC(=O)c1cccc(-n2c(=O)n(Cc3ccccc3)c(=O)c3ccccc32)c1", "Group Label": 0}

Determine if COC(=O)c1cccc(-n2c(=O)n(CC3CCCC3)c(=O)c3cccnc32)c1 shows minimal effective dose strictly lower than 1 µg/kg. 0

* * *

tested on: Rattus norvegicus; assay: Percentage inhibition of carrageenan-induced rat foot edema at a dose of 32 mg/kg when administered perorally (po).; format: functional
Measured inhibition in vivo at 32 mg/kg, listed per entry.
Quick note: give the figure in %, leave out the unit.

inhibition in vivo at 32 mg/kg for COC(=O)c1cccc(-n2c(=O)[nH]c(=O)c3ccccc32)c1 ? 5

inhibition in vivo at 32 mg/kg for CCn1c(=O)c2ccccc2n(-c2cccc(C(=O)OC)c2)c1=O ? 19

inhibition in vivo at 32 mg/kg for COC(=O)c1cccc(-n2c(=O)n(Cc3ccccc3)c(=O)c3ccccc32)c1 ? 25

inhibition in vivo at 32 mg/kg for COc1ccc(C2CNC(=O)C2)cc1OC1CCCC1 (centres undefined) [ROLIPRAM] ? 41

* * *

Measured IC50, listed per entry.
assay: Inhibition of phosphodiesterase 4 from guinea pig lung; design: species or system Cavia porcellus
Quick note: give the figure in µM, leave out the unit.

IC50 for CCn1c(=O)c2cccnc2n(-c2cccc(C(=O)OC)c2)c1=O ? 25.9

IC50 for CCn1c(=O)c2ccccc2n(-c2cccc(C(=O)OC)c2)c1=O ? 3.8

IC50 for COC(=O)c1cccc(-n2c(=O)n(Cc3ccccc3)c(=O)c3ccccc32)c1 ? 0.23

* * *

organism: Mus musculus; assay: Inhibition of reserpine-induced hypothermia in mice by peroral dose; format: functional; conditions: po, read-out: MED
Readout Kind: minimal effective dose (µg/kg)
Quick note: give the figure in µg/kg, leave out the unit.

{"Compound": "COC(=O)c1cccc(-n2c(=O)n(CC3CC4CCC3C4)c(=O)c3cccnc32)c1 (stereo not drawn)", "minimal effective dose / µg/kg": 1}

# next compound below
minimal effective dose for CCn1c(=O)c2ccccc2n(-c2cccc([N+](=O)[O-])c2)c1=O [NITRAQUAZONE] ? 1

* * *

assay: Inhibition of phosphodiesterase 4 from guinea pig lung; design: species or system Cavia porcellus
Measured IC50, listed per entry.
Quick note: give the figure in nM, leave out the unit.

{"Compound": "COC(=O)c1cccc(-n2c(=O)n(CC3CCCC3)c(=O)c3cccnc32)c1", "IC50 (nM)": 1520}
{"Compound": "CNC(=O)c1cccc(-n2c(=O)n(Cc3ccccc3)c(=O)c3ccccc32)c1", "IC50 (nM)": 21400}
{"Compound": "CCn1c(=O)c2ccccc2n(-c2cccc([N+](=O)[O-])c2)c1=O", "IC50 (nM)": 11400}
{"Compound": "COc1ccc(C2CNC(=O)C2)cc1OC1CCCC1 (stereo unspecified)", "IC50 (nM)": 590}

# next compound below
IC50 for COC(=O)c1cccc(-n2c(=O)n(CC3CC4CCC3C4)c(=O)c3cccnc32)c1 (stereo unspecified) ? 890

From: ChEMBL document CHEMBL1125241
